Values were extracted from ChEMBL document CHEMBL1201862.

# measured on: Ataxin-2 (Homo sapiens)
# protocol description: qHTS for Inhibitors of ATXN expression.
# Assay type: functional
Out of some 400,000 compounds screened, about 2,100 (0.53%) were called active. About 14% were inconclusive and are not listed. The rule behind the calls is not given here. The list comes from a sample in which actives are over-represented; it also holds close analogues and randomly drawn compounds.
Possible outcomes: 1 (yes) (active), 0 (no) (inactive)

[
  {
    "compound": "CN1/C(=C\\C(=O)c2cccnc2)C(C)(C)c2ccccc21",
    "cat": "0 (no)"
  },
  {
    "compound": "CC(C)=CCC/C(C)=C/CNC(=O)CC1C[C@H](C(=O)N2CCOCC2)[C@@]2(C)c3[nH]c4ccccc4c3CCN2C1=O (stereo not given in full)",
    "cat": "1 (yes)"
  },
  {
    "compound": "CC1(C)C2CC=C(/C=N/NC(=S)NCCc3ccccc3)C1C2 (stereo not given)",
    "cat": "0 (no)"
  },
  {
    "compound": "O=C(CCCCCn1c(=S)[nH]c2ccc(N3CCOCC3)cc2c1=O)NCc1ccccc1",
    "cat": "0 (no)"
  },
  {
    "compound": "CN1/C(=C/C(=O)c2nc(S(C)(=O)=O)ncc2Cl)C(C)(C)c2ccccc21",
    "cat": "1 (yes)"
  },
  {
    "compound": "CCOc1ccc(S(=O)(=O)[N-]c2nc3ccccc3nc2-[n+]2ccc(NC(=O)c3cccs3)cc2)cc1",
    "cat": "0 (no)"
  },
  {
    "compound": "O=C(Cn1cc(C(F)(F)F)ccc1=O)NCc1ccc(F)cc1",
    "cat": "0 (no)"
  },
  {
    "compound": "Cc1nnc(N/N=C/c2ccc(-c3ccc(Br)cc3)o2)n1N",
    "cat": "0 (no)"
  },
  {
    "compound": "COc1ccc2oc(=O)c(-c3nnc(N)s3)cc2c1",
    "cat": "0 (no)"
  },
  {
    "compound": "CCn1c(SC(C)C(=O)Nc2nnc(C)s2)nnc1-c1ccco1 (stereo not given)",
    "cat": "0 (no)"
  }
]

----------
# measured on: Ataxin-2 (Homo sapiens)
# protocol description: qHTS for Inhibitors of ATXN expression.
# Type: functional
About 2,100 (0.53%) of roughly 400,000 compounds were called active. Not shown: some 14% with an inconclusive outcome. How the calls were made is not given here. For the sample, actives were picked, then their nearest neighbours and some compounds at random.
Possible outcomes: yes (1) (active), no (0) (inactive)

[
  {
    "compound": "Nc1ccc(OC(=O)Nc2ccc(O)cc2)cc1",
    "cat": "no (0)"
  },
  {
    "compound": "CCOc1ccc(NC(=O)CC(NC(C)=O)c2ccccc2)cc1S(=O)(=O)N1CCCC1 (stereo not drawn)",
    "cat": "no (0)"
  },
  {
    "compound": "Nc1ccc2nn(-c3ccc(F)cc3)nc2c1",
    "cat": "no (0)"
  },
  {
    "compound": "Cc1ccc(C(=O)C(C(=O)/C=C/c2ccccc2)=C2SCCCS2)cc1",
    "cat": "yes (1)"
  },
  {
    "compound": "CC(=O)Nc1ccc(NS(=O)(=O)c2cc(-c3cnc(C4CC4)o3)ccc2C)cc1",
    "cat": "no (0)"
  },
  {
    "compound": "O=C(COC(=O)c1ccc(C(F)(F)F)cc1)NC(=O)NC1CCCC1",
    "cat": "no (0)"
  },
  {
    "compound": "CCCCNc1c(-c2ccc(SC(C)CC)cc2)nc2cnccn12 (stereo not drawn)",
    "cat": "no (0)"
  },
  {
    "compound": "O=S(=O)(Nc1ccccc1N1CCOCC1)c1ccccc1C(F)(F)F",
    "cat": "no (0)"
  },
  {
    "compound": "CC(C)(C)C(=O)Oc1ccc2cc(-c3ccc4ccccc4n3)c(=O)oc2c1",
    "cat": "no (0)"
  },
  {
    "compound": "CCS(=O)(=O)Nc1cc2c3c(c1)CCC(=O)N3CCC2",
    "cat": "no (0)"
  },
  {
    "compound": "CCOC(=O)CNc1c(-c2ccc(Cl)cc2)nc2cnccn12",
    "cat": "no (0)"
  },
  {
    "compound": "OC1=C2C(=Nc3ccccc3SC2c2ccc(C(F)(F)F)cc2)c2ccccc21 (stereo not drawn)",
    "cat": "yes (1)"
  },
  {
    "compound": "Cc1ccn2c(Nc3ccc(C(C)C)cc3)c(-c3cccnc3)nc2c1",
    "cat": "yes (1)"
  },
  {
    "compound": "CC1(C)Cc2nc(Cl)c(C(N)=O)cc2CO1",
    "cat": "no (0)"
  },
  {
    "compound": "CCOC(=O)N1CCN(c2nc(-c3ccccc3)c3ccccc3n2)CC1",
    "cat": "no (0)"
  },
  {
    "compound": "CCOC(=O)c1c(-c2ccccc2)nnn1-c1nc(OCC)nc(N2CCCCC2)n1",
    "cat": "yes (1)"
  },
  {
    "compound": "OC1=C2C(=Nc3ccccc3SC2c2ccc(Cl)c(Cl)c2)c2ccccc21 (stereo not drawn)",
    "cat": "yes (1)"
  },
  {
    "compound": "CC(C)c1ccc(Nc2c(-c3ccccc3O)nc3cnccn23)cc1",
    "cat": "yes (1)"
  },
  {
    "compound": "Cc1ccc2nc3c(cc(C(=O)NCCc4ccccc4)c(=N)n3CC3CCCO3)c(=O)n2c1 (stereo not drawn)",
    "cat": "no (0)"
  },
  {
    "compound": "N#CC(C(=O)NCc1ccccc1)c1nc2ccccc2nc1N1CCCC1 (stereo not drawn)",
    "cat": "no (0)"
  },
  {
    "compound": "CCC(C)Sc1cccc(-c2nc3cnccn3c2NC2CCCCC2)c1 (stereo not drawn)",
    "cat": "no (0)"
  },
  {
    "compound": "CC1CCCCC12NC(=O)N(CC(=O)OCc1cccc(F)c1)C2=O (stereo not drawn)",
    "cat": "no (0)"
  },
  {
    "compound": "CCOC(=O)c1cc(-c2ccccc2)nc2nc(N3CCCCC3)sc12",
    "cat": "no (0)"
  }
]
